- TESTED_ON: CYP1A1 (Homo sapiens, UniProt P04798)
- Sequence (P04798 whole entry): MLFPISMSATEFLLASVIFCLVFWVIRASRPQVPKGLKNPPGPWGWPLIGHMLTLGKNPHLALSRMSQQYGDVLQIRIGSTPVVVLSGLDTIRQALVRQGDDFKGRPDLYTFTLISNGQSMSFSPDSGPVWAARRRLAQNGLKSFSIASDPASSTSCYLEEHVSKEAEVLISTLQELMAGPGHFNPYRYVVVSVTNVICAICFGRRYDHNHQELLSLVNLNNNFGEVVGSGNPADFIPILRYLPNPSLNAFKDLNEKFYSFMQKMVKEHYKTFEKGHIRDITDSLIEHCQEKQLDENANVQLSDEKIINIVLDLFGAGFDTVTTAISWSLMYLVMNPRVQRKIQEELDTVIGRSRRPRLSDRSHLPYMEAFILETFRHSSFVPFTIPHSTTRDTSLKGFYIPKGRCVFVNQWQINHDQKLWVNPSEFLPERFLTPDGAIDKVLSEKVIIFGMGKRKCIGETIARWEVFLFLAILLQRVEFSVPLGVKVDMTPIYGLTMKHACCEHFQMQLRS
- ASSAY: Inhibition of human recombinant CYP1A1 expressed in HEK293 cells at 10 uM using 7-ethoxyresorufin substrate preincubated for 30 mins followed by substrate addition and measured after 60 mins by fluorescence assay relative to control
- Type: cell-based
- CONDITION_DESCRIPTION: HEK293 cells expressing human recombinant CYP1A1, probe 7-ethoxyresorufin
Please map values of inhibition at 1 h, 10 µM to classes as shown: lower range = under 80%, middle range = from 80% up to 90%, upper range = 90% and over

Solved cases (3 shown):
Input: Would you mind sorting `Nc1nccc(-c2c[nH]c3ccc(Br)cc23)n1` into the appropriate category?
Output: lower range

Input: Would you mind sorting `CC1=CC(=O)c2c(O)cccc2C1=O` into the appropriate category?
Output: middle range

Input: Would you mind sorting `COc1ccc(-c2cc(=O)c3c(O)c(OC)c(OC)cc3o2)cc1OC` into the appropriate category?
Output: upper range

Continuing:
Input: Would you mind sorting `COc1c2occc2c(OC)c2c(=O)cc(C)oc12` into the appropriate category?
Output: lower range

Input: Would you mind sorting `COc1c(C(=O)CC(=O)c2ccccc2)ccc2occc12` into the appropriate category?
Output: middle range
